# target-of-assay: hMC-4R (Homo sapiens, UniProt P32245)
# Construct: expressed in transfected cells; host or cells: HEK293
# Sequence (P32245 whole entry): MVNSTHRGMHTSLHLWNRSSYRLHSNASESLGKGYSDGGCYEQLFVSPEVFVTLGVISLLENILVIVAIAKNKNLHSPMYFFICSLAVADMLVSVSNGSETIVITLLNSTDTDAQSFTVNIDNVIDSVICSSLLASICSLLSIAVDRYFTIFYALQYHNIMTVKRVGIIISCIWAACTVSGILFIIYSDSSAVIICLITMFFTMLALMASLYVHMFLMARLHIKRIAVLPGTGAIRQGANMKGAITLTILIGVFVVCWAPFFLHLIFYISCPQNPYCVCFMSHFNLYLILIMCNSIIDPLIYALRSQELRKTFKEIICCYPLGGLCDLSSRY
# assay-comment: Membrane binding assay (fluorescence polarization, competition with fluorescence labeled NDP-alpha-MSH)
quantity-name: IC50 (nM)
Please respond with the number in nM and leave the unit unwritten.

Solved cases (2 shown):
>>> df
                        structure_as_smiles  output_unit  recorded_number
0  CC(C)CCN(CCC(C)C)C(=O)c1ccc2nc(-c3ccc(C#N)cc3)c(CCCN3CCCC3)n2n1           nM              300
1  CC(C)CCN(CCC(C)C)C(=O)c1ccc2nc(-c3ccc4c(c3)OCCO4)c(CCCN)n2n1           nM             1100

Prompt: # returns recorded IC50 (system: hMC-4R (Homo sapiens, UniProt P32245)) for "CC(C)CCN(CCC(C)C)C(=O)c1cn2c(CCCN(C)C)c(-c3ccc(C(N)=O)cc3)nc2cn1"
Response: 280

---

Entries and their measured IC50 follow.
# target-of-assay: hMC-4R (Homo sapiens)
# Construct: expressed in transfected cells; host or cells: HEK293
# assay-comment: Membrane binding assay (fluorescence polarization, competition with fluorescence labeled NDP-alpha-MSH)
# settings: HEK293 cell membrane preparations expressing human melanocortin receptors; 5 h at room temperature; read-out: hMC-4R binding assay IC50/µM
Please respond with the number in µM and leave the unit unwritten.

>>> print(df.to_string())
                        structure_as_smiles  quantity_name  recorded_number
0  CC(C)CCN(CCC(C)C)C(=O)c1ccc2nc(-c3ccc4c(c3)OCCO4)c(CCCN3CCCCC3)n2n1           IC50             0.12
1  CC(C)CCN(CCC(C)C)C(=O)c1cn2c(CCCN(C)C)c(-c3ccc(C#N)cc3)nc2cn1           IC50             0.19

// next item, IC50 requested
Prompt: # returns recorded IC50 (system: hMC-4R (Homo sapiens)) for "CC(C)CCN(CCC(C)C)C(=O)c1cn2c(CCCN3CCCC3)c(-c3ccc(C(N)=O)cc3)nc2cn1"
Response: 0.048
